# experimental-target: T1, human MSLN-R3 protein (Met487-Ser606 of NCBI AAH09272.1) expressed on HEK293T-hMSLN-R3 cells (human, UniProt Q13421 487-606)
# T1 construct: also called Region3
# T1 sequence (Q13421 495-614): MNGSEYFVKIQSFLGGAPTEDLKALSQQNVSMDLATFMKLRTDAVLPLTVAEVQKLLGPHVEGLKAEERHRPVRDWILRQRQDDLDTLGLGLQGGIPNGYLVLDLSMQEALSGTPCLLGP
# procedure-text: FACS on HEK293T-hMSLN-R3 cells;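 note: flow cytometry binding of test chimeric antibodies to cells after 2 h incubation on ice, with values derived from the mean fluorescence intensity of the cells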
result-type: Maximum mean fluorescence intensity

binder	result-type	measurement
S009-F7.2.3 (antibody, human IgG1, kappa, V domains shown, human-murine chimeric antibody, human IgG1/kappa constant regions) VH: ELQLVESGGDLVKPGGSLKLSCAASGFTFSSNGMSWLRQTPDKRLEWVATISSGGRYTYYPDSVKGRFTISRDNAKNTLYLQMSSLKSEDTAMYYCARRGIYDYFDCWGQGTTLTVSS VL: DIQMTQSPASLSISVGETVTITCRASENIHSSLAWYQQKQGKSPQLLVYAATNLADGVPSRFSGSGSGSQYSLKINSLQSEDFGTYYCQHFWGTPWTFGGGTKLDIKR	Maximum mean fluorescence intensity	33
